test: soluble on expression in E. coli; label from the status in PepcDB or PDB records

sequence.text | soluble on expression in E. coli
MSLSDKHIKQTVLNSNDNRISPSHVCDIFLPQNGLSERWKAFTRRRFVIAETGFGTGLSFLTACQQFTQFRQANPTATVKELHFISFEQHPLTKSDLIKATEKWPEFAHFSQQLHAHYPPAVSDCHRIVLDEGLITLDLWFGNITDSMPQVWTNDDGIVDAWFTDGFATESNAALLKSLTIINSIAILARENSTIHAITYHQGNQQDVLEQSLTEAGFDMTESHNEGHHHHHH | soluble
MRSFPKAKEAFSEGEKVSFGVHRLHVGDAREVLASFPEASVHLVVTSPPYWTLKRYEDTPGQLGHIEDYEAFLDELDRVWREVFRLLVPGGRLVIVVGDVAVARRRFGRHLVFPLHADIQVRCRKLGFDNLNPIIWHKHTNASLEVEGRGVFLGKPYEPGAIIKTEIEYILMQRKPGGYRKPTQEQREKSRLPKEDFHRFFRQIWDDIPGESTKDHPAPFPLELAERLVRMFSFVGDVVLDPFAGTGTTLIAAARWGRRALGVELVPRYAQLAKERFAREVPGFSLEVLDGATHPRR | soluble

----------
test: soluble on expression in E. coli; label from the status in PepcDB or PDB records
readout.kind: soluble on expression in E. coli

sequence.text | data.value
MKKRGLENHPQNRKKIFERFPRLTKLSEKNLFQICKTTLLNERKMKSIQNTIDELRKLSAGKSSEEVQRLKEMQKHSKMFGEIFGVYGATVGKPKPKEKEVKVPTKEMTFEEKRKLLETTFPNKVTPGQRAKARETLNFIANNPEIYAIASPQDPSSKAKTDPVSRPQLNIISSFSWPITSGSDWSPHGSEFNDLTAPRVGKLTPVPQWSDMKKSSLKLGTEDNFSKMSYDPAYSNTTQSQSVTTLYNETSTPYYDDSDLGTPLHTCVQ | not soluble
MRVAVTGTPGTGKTTATGRLDTALDVAHLNDLVGTEGLYDGVDADRGSKIVDVDAVRDHFAGREDVLVESHLAHRLDDLDAVVVLRCAPETLATRLQDRGDSPEKAAENADSEALAIILSEAVRGHGADAVYEIDTTDRSPDAVAAAIQAVLDGDREPSAGTVDYTDYV | not soluble

----------
experiment: soluble on expression in E. coli; label from the status in PepcDB or PDB records
readout.kind: soluble on expression in E. coli

Example sequences with recorded soluble on expression in E. coli:
sequence.text | soluble on expression in E. coli
MQNMLSMHFFSVMASLNAMASMRVIVFLYQLSILGDCSTIDSLRDLMISQIVLAYNCISVHVNMYISTNGSEASIASRMSTLESCLFLITMNKGSASFGKRRFFYRDLA | soluble
GHMATIHPTAIVDEGARIGAHSRIWHWVHICGGAEIGEGCSLGQNVFVGNRVRIGNRVKIQNNVSVYDNVFLEDDVFCGPSMVFTNVYNPRAAIERKSEYRDTIVRQGATLGANCTVVCGATIGRYAFVGAGAVVNKDVPDFALVVGVPARQIGWMSRHGEQLDLPLRGNAEATCPHTGERYILTDGVCRLA | soluble
GPGSMRCVRSAAVLVKFGRSFDSTTRFGKELGFSHKMRDIPVLTGNPRPVAREEEWSCRYKLTDRMEDVVMDILKKEGWCEAEVQREMSEIFERKTQGCRSSLNTWTTVEEFQRTPWYRRYKPTDTCVAKYISYEVVKLLEEALIPPSLRGDPYAHLRKRHMEDNWMNDRFSEEAAKYIQREDLNKHTKGLPQYGQITRRKFLEFDRQFKESYGGKQHVNEAYSAWLQSIGKG | not soluble
MSLVKNEEKLLEVINKYELNSIFSQEIMPFLELHMFKKNEHICFMNEELNYLYFFVHGKAKVYKTLPNGKSLLLEFYEPVQLIGDLELISKIKANCNVKALKSSLCIAIPIQAVNSIALKDLNFLMYITKNLSNKLAKCSVTSSITITYPLETKLASYLLAMNSNNIIMIDNYSNLADLLGTSYRHLNRVLNKLVEKGIILKDKNEIKILNKEELENICVDLNEGHHHHHH | soluble
MAKKEIEPKTEQAKRLRLIRKSLQLHRDQIATRLGINKAIYDHAERGTTFPNVEFLTALSQQLKVNLNWFITGNGEMFTDMAKAKAAGFKPQAIPAGLMKRLGHLAYTTYRDAKITLPPEDVAELAAGLYGKLQELIYNINDMEEVEATLPLLKLHLKRQVEAEKAH | not soluble
MLCTVTEKLYYDDMYMKEFQAEVVSVDSNGIVLDRTAFYPTGGGQPNDTGIIVNDDKTYRVVDVQKHGDDVVHILESVDGLKAGDRIYGKIDWERRYAHMRYHTAIHILDGIVSAKHNSEALLTGGQIYEDRSRIDMNIENFTKEFVDQIIQEANEFISEGHRVYAENISREEAMKRPNLARTEPGRKLIESLPVVRIIVIEGLDEQSDGGTHVANTREVGKIVLRKIENKGRKNKRIEFELSPA | not soluble
MSLELEQLTSNSIRPYIPKGTHPVETGKYLISTNEIDRMYQTVLQWIGNRIPGAIIYGRPRLGKTRAITYLMNCLPQDFGNNMPIYHVRCRTYKRPNENSFFEDLLLAVGHSIAIQGKANVKRNRLLKFLVERSDFSGTNKVVFFIDDAQRLVEIHYDWLMDLFNELEQYGITLTTILVGQKELVHQRSAFISGEKFQIVGRFMSQEYQFKGIKTPRDLKICLTGYDEYCEYPINSNWSFTKYFFADSFIRGLRLQNSAEELFQVFVDLRREHGLSQKVEIPMQHITLTVEYALKNFGIDNLDLTTIEKTHWEESIKNSGYIQSELYQTTEGHHHHHH | not soluble
MENKKSFFHLHLISDSTGETLMSAGRAVSAQFHTSMPVEHVYPMIRNQKQLAQVIDLIDKEPGIVLYTIVDQQLAEFLDLRCHAIGVPCVNVLEPIIGIFQTYLGAPSRRRVGAQHALNADYFARIEALNFAMDHDDGQMPETYDDADVVIIGISRTSKTPTSIYLANRGIKTANIPVVPNVPLPESLYAATRPLIVGLVATSDRISQVRENRDLGTTGGFDGGRYTDRATIMEELKYARALCARNNWPLIDVTRRSIEETAAAILALRPRTRLEHHHHHH | soluble
GAMGSDFLLGNPFSSPVGQRIEKATDGSLQSEDWALNMEICDIINETEEGPKDALRAVKKRIVGNKNFHEVMLALTVLETCVKNCGHRFHVLVASQDFVESVLVRTILPKNNPPTIVHDKVLNLIQSWADAFRSSPDLTGVVTIYEDLRRKGLEFPM | soluble
MLWHAMPPELNTARLMAGAGPAPMLAAAAGWQTLSAALDAQAVELTARLNSLGEAWTGGGSDKALAAATPMVVWLQTASTQAKTRAMQATAQAAAYTQAMATTPSLPEIAANHITQAVLTATNFFGINTIPIALTEMDYFIRMWNQAALAMEVYQAETAVNTLFEKLEPMASILDPGASQSTTNPIFGMPSPGSSTPVGQLPPAATQTLGQLGEMSGPMQQLTQPLQQVTSLFSQVGGTGGGNPADEEAAQMGLLGTSPLSNHPLAGGSGPSAGAGLLRAESLPGAGGSLTRTPLMSQLIEKPVAPSVMPAAAAGSSATGGAAPVGAGAMGQGAQSGGSTRPGLVAPAPLAQEREEDDEDDWDEEDDW | soluble

Q) Name the reported soluble on expression in E. coli value associated with the sequence MFVIGIPTLNEADNISRLVKQIDEYAVNLGKEIIIINSDSKSTDGTPQIFLETKTYNTKVSIVSEAKGKGYNVRNIFEYAINHVPNFSGLILIDGDVVSMKKMWLEKMFIAIESGNDLIIPNYARKSFEGNATNHFIYPMLVKIFKRDMPYQCISGDFGFSRGLIKDLTLKCNWHKYTLGYGIDIFLTLTAILKSYKIKEIDLQSKIHKKSFEKIEKIFLEVSQSFFETINDNSLNQDKLRLNINFESHSRQFIKSSDILSSNDIENLKLRALFLLQEEKQYLHGLSEVEWDGILSNTINNIYRYSSEEHSLYLLPLYLLRVYNYLKYN
A) not soluble

Q) Let us now turn to MDIRQMNRTHLDHWRGLRKQLWPGHPDDAHLADGEEILQADHLASFIAMADGVAIGFADASIRHDYVNGCDSSPVVFLEGIFVLPSFRQRGVAKQLIAAVQRWGTNKGCREMASDTSPENTISQKVHQALGFEETERVIFYRKRC
A) not soluble

Q) Can you check MAMNGTITTWFKDKGFGFIKDENGDNRYFHVIKVANPDLIKKDAAVTFEPTTNNKGLSAYAVKVVPESKYIYIAGERLKLTSIKSYLVYSEEVPADTRIDKENTVLSVGVLMNSIRPKSVAEPDEIRSLKKLAITTFQGTTLIFSEDEIDVDATVKLLKVLEHHHHHH next?
A) soluble

----------
assay: soluble on expression in E. coli; label from the status in PepcDB or PDB records

sequence.text | soluble on expression in E. coli
MGSDKIHHHHHHMPSIQELENFIIYGKVRNFTLAANQANITQSAFSFQMKKLEETLGVKLILRSNRGSSLTPEGEIFYKKISEILPELVGVIYEFQQINGEKAIELKVGVLTSLGDILMNQHVNYFQKNKNILITVYSMEKNELIRALNNGKIDIASTFLFDDETLENFEKSLFRKDKIVYYAPKIKEISGTIKRDNMLKVPLVKYPPDNFMNKMIDQYFNIERKMPTVAAKLPSPYAFIEYCKQDTAGAFITERLLNTLGFKYKQEYFNIDPPYEIKAFLLYKKENPKYSAIKIFTDYVVKLNQRDS | not soluble
QDLTLSFNHIKSAVIYSAYPLTDKQVGELVQMLNKRFDSELKISVEIEPELIGGIKVEVGDQVLDLSVQGKLSALYTTMTN | not soluble

These data points were gathered from the DeepSol protein solubility set.
